tested on: A549; assay: Growth inhibition of human A549/ATCC cells incubated for 48 hrs by sulforhodamine B assay; assay type: functional; details: A549, 48 h
Quantity Measured: GI50 (nM)
Form entry: value (nM) — number only.

According to the records, this compound COc1ccc(C(=O)/C=C/c2cccc(Nc3ccnc4cc(Cl)ccc34)c2)cc1 displays GI50 of 2780

According to the records, this compound O=CN1N=C(c2ccc(Cl)cc2)CC1c1cccc(Nc2ccnc3cc(Cl)ccc23)c1 (stereo not given) displays GI50 of 2030

According to the records, this compound COc1cccc2c1C(=O)c1c(O)c3c(c(O)c1C2=O)C[C@@](O)(C(=O)CO)C[C@@H]3O[C@H]1C[C@H](N)[C@H](O)[C@H](C)O1 displays GI50 of 60

According to the records, this compound COc1cc(C(=O)/C=C/c2cccc(Nc3ccnc4cc(Cl)ccc34)c2)cc(OC)c1OC displays GI50 of 1480

According to the records, this compound COc1ccc(C2=NN(C=O)C(c3cccc(Nc4ccnc5cc(Cl)ccc45)c3)C2)cc1 (stereo not given) displays GI50 of 4630

Each recorded value in this set is attributed to ChEMBL document CHEMBL4038284.
